# Number of hybridomas responding to peptide per entry
test system: T-cell hybridomas; assay: FVIII peptide specificity of T cell hybridomas generated from FVIII-/- HLA-DR2+ mice (IL-2 production); type: cell-based; conditions: of 19 hybridomas specific for factor VIII; factor VIII deficient HLA-DR2 mice
property-label: Number of hybridomas responding to peptide

record-sequence | tgt | measured
DTLLIIFKNQASRPY | T-cell hybridomas | 1
DNIMVTFRNQASRPY | T-cell hybridomas | 10
PPIIARYIRLHPTHY [FVIII first AA 2161] | T-cell hybridomas | 1
SLYISQFIIMYSLDG [FVIII first AA 2114] | T-cell hybridomas | 1
PRCLTRYYSSFVNME | T-cell hybridomas | 6
